Kindly supply the reported melting point values for the records listed here.

INPUT: // returns reported melting point for input CN1C[C@H](O)C[C@H]1C(N)=O
OUTPUT: 138 to 140 °C

INPUT: // returns reported melting point for input COC1CC2C3CCC4=CC(=O)CCC4(C)C3(F)CCC2(C)C1(OC(C)=O)C(=O)CCl (stereo not given)
OUTPUT: 241 to 244 °C

INPUT: // returns reported melting point for input Cc1ccn(-c2ccc(C(=O)N3Cc4cccnc4Nc4ccccc43)c(Cl)c2)n1
OUTPUT: 192 to 193 °C

INPUT: // returns reported melting point for input Cc1ccsc1C(=COCCN1CCC[C@@H](C(=O)O)C1)c1sccc1C
OUTPUT: 55 to 70 °C

INPUT: // returns reported melting point for input CC(=O)OC1CSC(Oc2ccc(-c3cnccc3F)nc2-c2cnccc2F)C(OC(C)=O)C1OC(C)=O (stereo not given)
OUTPUT: 169 °C

INPUT: // returns reported melting point for input CNc1nc(-c2cccc(NC(=O)CCc3ccccc3)c2)c2cc(OC)c(OC)cc2n1
OUTPUT: 180 to 182 °C

INPUT: // returns reported melting point for input COc1cc2c3c(c1)c(=O)c(Cc1cccnc1)cn3-c1cc(Br)ccc1S2
OUTPUT: 169 to 173 °C

INPUT: // returns reported melting point for input CN(C)c1ccc(-c2[nH]nc3c2C(=O)c2c(NC(=O)CN4CCOCC4)cccc2-3)cc1
OUTPUT: > 300 °C

INPUT: // returns reported melting point for input O=C(Nc1ccc2[nH]c(=O)oc2c1)C(=O)N1CCC(Cc2ccc(F)cc2)CC1
OUTPUT: 224 to 227 °C

INPUT: // returns reported melting point for input Nc1ccc(Oc2cccc(C(F)(F)F)c2Cl)cc1
OUTPUT: 65 to 66.5 °C

Hello, the source for this data is a melting point compilation (Tetko et al.; mined from patent text by program, amines drawn as free bases though some values may be those of a salt), in case you need it.
